target: HLA-A*01:01
measurement description: IEDB peptide-MHC binding, purified MHC/competitive/fluorescence; filed as Kd, often an IC50 or EC50 that approximates it; bounds were set here for any values at or beyond the usual limits of such assays
assay setup: source organism: Human betaherpesvirus 7
reported endpoint: pKd
Kindly note that pKd refers to -log10 of the concentration in mol/L and answer with the value alone.

Could you tell me which pKd is on file for `LSMFVTNKK` ?
5.52

====

target: HLA-B*39:01
measurement description: IEDB peptide-MHC binding, purified MHC/competitive/fluorescence; filed as Kd, often an IC50 or EC50 that approximates it; bounds were set here for any values at or beyond the usual limits of such assays
assay setup: source organism: Brucella canis ATCC 23365
reported endpoint: pKd
Kindly note that pKd refers to -log10 of the concentration in mol/L and answer with the value alone.

Could you tell me which pKd is on file for `IEVKFHPIL` ?
5.97

====

target: HLA-A*02:11
measurement description: IEDB peptide-MHC binding, purified MHC/competitive/fluorescence; filed as Kd, often an IC50 or EC50 that approximates it; bounds were set here for any values at or beyond the usual limits of such assays
assay setup: source organism: Rickettsia sibirica 246
pKd: −log10 of the molar value.
reported endpoint: pKd

Could you tell me which pKd is on file for `YLKKLDDFY` ?
≤ 4.70

====

Please respond with reported pKd for every item in the list.
target: HLA-A*03:01
measurement description: IEDB peptide-MHC binding, purified MHC/direct/fluorescence; filed as Kd, often an IC50 or EC50 that approximates it; bounds were set here for any values at or beyond the usual limits of such assays
assay setup: source organism: Mycobacterium tuberculosis
pKd: −log10 of the molar value.

Could you tell me which pKd is on file for `RVEESRARL` ?
≤ 4.70

Could you tell me which pKd is on file for `QQDTNSAGL` ?
≤ 4.70

====

target: HLA-A*02:11
measurement description: IEDB peptide-MHC binding, purified MHC/direct/fluorescence; filed as Kd, often an IC50 or EC50 that approximates it; bounds were set here for any values at or beyond the usual limits of such assays
assay setup: source organism: Convict Creek 107 virus
reported endpoint: Kd

Could you tell me which Kd is on file for `TEFFMSRKL` ?
≥ 20 µM

====

target: HLA-A*03:01
measurement description: IEDB peptide-MHC binding, purified MHC/direct/fluorescence; filed as Kd, often an IC50 or EC50 that approximates it; bounds were set here for any values at or beyond the usual limits of such assays
assay setup: source organism: Convict Creek 107 virus
reported endpoint: Kd

Param readout= Kd; system= HLA-A*03:01; entry= `TEFFMSRKL` ; returns value.
≥ 20 µM

====

target: HLA-A*11:01
measurement description: IEDB peptide-MHC binding, purified MHC/direct/fluorescence; filed as Kd, often an IC50 or EC50 that approximates it; bounds were set here for any values at or beyond the usual limits of such assays
assay setup: source organism: Mammarenavirus lassaense
reported endpoint: Kd

Could you tell me which Kd is on file for `IEEVMNIVL` ?
≥ 20000 nM

Could you tell me which Kd is on file for `KLIDIALSK` ?
1.2 nM

====

target: HLA-A*24:02
measurement description: IEDB peptide-MHC binding, purified MHC/competitive/fluorescence; bounds were set here for any values at or beyond the usual limits of such assays
assay setup: source organism: Variola virus
Please respond with reported pIC50 for every item in the list.
Kindly note that pIC50 refers to -log10 of the concentration in mol/L and answer with the value alone.

Could you tell me which pIC50 is on file for `IAVARKHHT` ?
4.31

Could you tell me which pIC50 is on file for `DIIIAVARK` ?
4.21
